MEASUREMENT PROTOCOL: in vivo
Design: species or system Sprague-Dawley (SD) rats
CONDITION INFO: Sprague-Dawley, rat, plasma, po, 60 mg·kg^−1
PROPERTY MEASURED: concentration at 12 h (ng/mL)
Give bare numbers, in ng/mL.

Past entries and their recorded results:
>>> endpoint_value("CC(C)=CCC[C@](C)(O[C@@H]1O[C@H](CO)[C@@H](O)[C@H](O)[C@H]1O)[C@H]1CC[C@]2(C)[C@@H]1[C@H](O)C[C@@H]1[C@@]3(C)CC[C@H](O)C(C)(C)[C@@H]3[C@@H](O[C@@H]3O[C@H](CO)[C@@H](O)[C@H](O)[C@H]3O)C[C@]12C [GRg1, ginsenoside Rg1]")
0.59
>>> endpoint_value("CC(C)=CCC[C@](C)(O[C@@H]1O[C@H](CO)[C@@H](O)[C@H](O)[C@H]1O)[C@H]1CC[C@]2(C)[C@@H]1[C@H](O)C[C@@H]1[C@@]3(C)CC[C@H](O)C(C)(C)[C@@H]3[C@@H](O[C@@H]3O[C@H](CO)[C@@H](O)[C@H](O)[C@H]3O[C@@H]3OC[C@@H](O)[C@H](O)[C@H]3O)C[C@]12C [NGR1, notoginsenoside R1]")
0.35
>>> endpoint_value("CC(C)=CCC[C@](C)(O[C@@H]1O[C@H](CO[C@@H]2O[C@H](CO)[C@@H](O)[C@H](O)[C@H]2O)[C@@H](O)[C@H](O)[C@H]1O)[C@H]1CC[C@]2(C)[C@@H]1[C@H](O)C[C@@H]1[C@@]3(C)CC[C@H](O[C@@H]4O[C@H](CO)[C@@H](O)[C@H](O)[C@H]4O[C@@H]4O[C@H](CO)[C@@H](O)[C@H](O)[C@H]4O)C(C)(C)[C@@H]3CC[C@]12C [GRb1, ginsenoside Rb1]")
53.9

Ask | Quick one: concentration at 12 h for CC(C)=CCC[C@](C)(O[C@@H]1O[C@H](CO)[C@@H](O)[C@H](O)[C@H]1O)[C@H]1CC[C@]2(C)[C@@H]1[C@H](O)C[C@@H]1[C@@]3(C)CC[C@H](O[C@@H]4O[C@H](CO)[C@@H](O)[C@H](O)[C@H]4O[C@@H]4O[C@H](CO)[C@@H](O)[C@H](O)[C@H]4O)C(C)(C)[C@@H]3CC[C@]12C [GRd, ginsenoside Rd] ?
Reply | 8.73

* * *

MEASUREMENT PROTOCOL: in vivo
Parameters: species or system Sprague-Dawley (SD) rats
CONDITION INFO: Sprague-Dawley, rat, plasma, po, 60 mg·kg^−1
PROPERTY MEASURED: concentration at 96 h (ng/mL)
Answers are plain numbers, in ng/mL.

Ask | Which measured concentration at 96 h value corresponds to CC(C)=CCC[C@](C)(O[C@@H]1O[C@H](CO[C@@H]2O[C@H](CO)[C@@H](O)[C@H](O)[C@H]2O)[C@@H](O)[C@H](O)[C@H]1O)[C@H]1CC[C@]2(C)[C@@H]1[C@H](O)C[C@@H]1[C@@]3(C)CC[C@H](O[C@@H]4O[C@H](CO)[C@@H](O)[C@H](O)[C@H]4O[C@@H]4O[C@H](CO)[C@@H](O)[C@H](O)[C@H]4O)C(C)(C)[C@@H]3CC[C@]12C [GRb1, ginsenoside Rb1] ?
Reply | 6.79
